Test: TOR pathway GLN3 branch reporter MEP2-GFP changes – S. cerevisiae, multiplex flow cytometry, primary screen (AID 1867);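 further: median GFP channel fluorescence of barcode-gated MEP2-GFP cells measured by flow cytometry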
Conditions: S. cerevisiae MEP2-GFP strain, 3 h, at 10 µM, stronger effect = higher value, 100% means same as DMSO wells
Records with an inconclusive call do not appear.
endpoint-name: GFP response vs DMSO (%)
Give just the number in %; leave the unit off.

// known answers, use as guide
COc1ccc2c(CC(=O)NCC3CCC(C(=O)O)CC3)cc(=O)oc2c1 (stereo unspecified); 103
CCOC(=O)c1cccc(P(C)(C)=O)c1; 97.2
Cc1nc2cc3ccccc3cc2c(=O)[nH]1; 106
Cc1[nH]c2ccccc2c1/C=C/c1nc2ccccc2c(=O)n1CCO; 106
CCOC(=O)C1(Cc2cccc(Cl)c2)CCCN(C2CCN(C(C)=O)CC2)C1 (stereo unspecified); 101

Proceeding to the next compound to report its GFP response vs DMSO.
Any idea what GFP response vs DMSO was measured for `Cc1nonc1CN(C)C(=O)c1ccc(OC2CCN(C(=O)c3cccnc3)CC2)cc1` ? 105

====

Target: Beta-2 adrenergic receptor (Homo sapiens) (UniProt P07550)
Sequence (P07550 whole entry, looked up): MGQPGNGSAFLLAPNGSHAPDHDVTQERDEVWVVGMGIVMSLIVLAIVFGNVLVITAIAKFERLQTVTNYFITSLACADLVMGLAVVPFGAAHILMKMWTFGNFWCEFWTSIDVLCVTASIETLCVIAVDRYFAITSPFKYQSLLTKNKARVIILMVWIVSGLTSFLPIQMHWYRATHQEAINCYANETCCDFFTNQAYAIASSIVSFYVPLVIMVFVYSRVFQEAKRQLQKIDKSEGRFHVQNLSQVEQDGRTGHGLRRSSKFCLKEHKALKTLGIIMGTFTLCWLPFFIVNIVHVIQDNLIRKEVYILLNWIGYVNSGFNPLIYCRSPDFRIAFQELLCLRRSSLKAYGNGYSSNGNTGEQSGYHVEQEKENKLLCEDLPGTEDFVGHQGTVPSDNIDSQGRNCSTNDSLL
Assay: agonist-induced loss of surface beta2AR – cell-based, FAP fluorogen, flow cytometry, validation set, pilot screen (AID 504459);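 further: agonist-driven loss of surface beta2AR via internalization measured by FAP dye flow cytometry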
Details: Am2.2-beta2AR cells, at 10 µM, stronger effect = higher value
List of response values.
Give just the number in %; leave the unit off.

// known answers, use as guide
O=C1C2CC=C(Cl)CC2C(=O)N1CCc1c[nH]c2ccccc12 (stereo not given); -5.28
CCN(CC)C(=O)c1sc(NC(=O)c2c(OC)cccc2OC)c(C#N)c1C; -1.95
CCOC(=O)Cn1c(C)cc(=O)c2ccccc21; 8.73

Any idea what response was measured for `C[C@]12CCC(=O)C=C1[C@H](O)C[C@@H]1[C@@H]2[C@@H](O)C[C@@]2(C)[C@H]1CC[C@]2(O)C(=O)CO` ? 6.38

====

Target: Beta-2 adrenergic receptor (Homo sapiens) (UniProt P07550)
Assay: agonist-induced loss of surface beta2AR – cell-based, FAP fluorogen, flow cytometry, validation set, pilot screen (AID 504459);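 further: agonist-driven loss of surface beta2AR via internalization measured by FAP dye flow cytometry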
Conditions: Am2.2-beta2AR cells, at 10 µM, stronger effect = higher value
endpoint-name: response (%)
Give just the number in %; leave the unit off.

// known answers, use as guide
COc1ccc(C2C(C(=O)c3ccco3)=C(O)C(=O)N2CC2CCCO2)cc1 (stereo unspecified); -3.98
Cc1ccc2ncnc(NCCCCCC(=O)O)c2c1; 0.4
Cc1ccc(/C(=C\CN2CCCC2)c2ccccn2)cc1; 7.2
Cc1ccc(S(=O)(=O)N[C@@H](Cc2ccccc2)C(=O)CCl)cc1; 11.3
C[N+](C)(C)CCCCCCCCCC[N+](C)(C)C; -10.3

Proceeding to the next compound to report its response.
Any idea what response was measured for `Fc1ccc(-n2cc(CNCCc3ccccn3)c(-c3ccccc3Cl)n2)cc1` ? -23.3

====

List of GFP response vs DMSO values.
Assay: TOR pathway GLN3 branch reporter MEP2-GFP changes – S. cerevisiae, multiplex flow cytometry, primary screen (AID 1867);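 further: median GFP channel fluorescence of barcode-gated MEP2-GFP cells measured by flow cytometry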
Settings: S. cerevisiae MEP2-GFP strain, 3 h, at 10 µM, stronger effect = higher value, 100% means same as DMSO wells
Results filed as inconclusive are left out.
Give just the number in %; leave the unit off.

CN1CCN(C2=Nc3ccccc3Oc3ccc(Cl)cc32)CC1; 115

Any idea what GFP response vs DMSO was measured for CCOC(=O)C1CCCN(Cc2nc(Cc3cccc(F)c3)no2)C1 (stereo unspecified) ? 92.6

Any idea what GFP response vs DMSO was measured for `C[C@]12CC[C@H]3[C@@H](CCC4=CC(=O)CC[C@@]43C)[C@@H]1CC[C@@H]2C(=O)CO` ? 119

Any idea what GFP response vs DMSO was measured for `CC1=CC(=O)c2ccccc2C1=O` ? 104

Any idea what GFP response vs DMSO was measured for `Cc1nc(N)sc1C(=O)N/N=C/c1ccco1` ? 107

Any idea what GFP response vs DMSO was measured for `COc1cc2c(cc1OC)CN(Cc1ccc(C)s1)CC2` ? 106

Any idea what GFP response vs DMSO was measured for CC(=O)N(CCC1(c2ccc(C)cc2)CCOC(C(C)C)C1)Cc1ccco1 (stereo unspecified) ? 108

Any idea what GFP response vs DMSO was measured for `CC(C)CN(C)Cc1c(C(=O)N2CCc3ccccc3C2)nc2ccc(Cl)cn12` ? 103
